Reported log10 Ki against Dipeptidyl peptidase 4 (Homo sapiens), gathered from multiple publications, appears below.
measured quantity: log10 Ki (log10 of the value in nM)

compound	recorded number
NCCCC[C@H](NC(=O)OCc1ccccc1)C(=O)N1CCCC1	2.72
C[C@H](N)C(=S)N1CCSC1	3.90
N[C@@H](CC(=O)O)C(=O)N1CCCC1	4.16
CC[C@H](C)[C@H](N)C(=O)N1C[S+]([O-])C[C@H]1C#N (stereo in doubt; 7)	1.53
CC(C)(C)[C@H](N)C(=O)N1CCCC1	2.94
COc1cc(O)c(Cl)cc1/C=C/C(=O)c1cccc(O)c1	4.24
N#C[C@@H]1C[C@@H]2C[C@@H]2N1C(=O)[C@@H](N)C1CCN(C(=O)Cc2ccccc2)CC1	1.26
N#C[C@@H]1C[C@@H]2C[C@@H]2N1C(=O)[C@@H](N)C1CCN(S(=O)(=O)c2cccc3ccccc23)CC1	1.11
Cc1nc2c(c(-c3ccc(Cl)cc3Cl)c1CN)CN(C)C2=O (single isomer, unassigned; atropisomer)	1.46
COc1cc(O)c(Cl)cc1/C=C/C(=O)c1ccc(Br)cc1	3.50
N#C[C@@H]1CCCN1C(=O)[C@@H](N)CCCCN	0.72
COc1ccc(C(=O)/C=C/c2cc(Cl)c(O)cc2OC)cc1O	4.36
C[C@H](N)C(=S)N1CCCC1	4.68
CCCC[C@H](N)C(=O)N1CCCC1	3.08
NCC(=O)N1CCC[C@H]1B(O)O	-0.40
COc1cc(O)c(Cl)cc1/C=C/C(=O)c1ccc(O)c(O)c1	4.05
C=CC1([C@H](N)C(=O)N2[C@H](C#N)C[C@@H]3C[C@@H]32)CCCC1	0.59
N[C@@H](CCC(=O)OCc1ccccc1)C(=O)N1CCCC1	3.43

====

Reported log10 Ki against Dipeptidyl peptidase 4 (Homo sapiens, UniProt P27487), gathered from multiple publications, appears below.
Sequence (P27487 whole entry): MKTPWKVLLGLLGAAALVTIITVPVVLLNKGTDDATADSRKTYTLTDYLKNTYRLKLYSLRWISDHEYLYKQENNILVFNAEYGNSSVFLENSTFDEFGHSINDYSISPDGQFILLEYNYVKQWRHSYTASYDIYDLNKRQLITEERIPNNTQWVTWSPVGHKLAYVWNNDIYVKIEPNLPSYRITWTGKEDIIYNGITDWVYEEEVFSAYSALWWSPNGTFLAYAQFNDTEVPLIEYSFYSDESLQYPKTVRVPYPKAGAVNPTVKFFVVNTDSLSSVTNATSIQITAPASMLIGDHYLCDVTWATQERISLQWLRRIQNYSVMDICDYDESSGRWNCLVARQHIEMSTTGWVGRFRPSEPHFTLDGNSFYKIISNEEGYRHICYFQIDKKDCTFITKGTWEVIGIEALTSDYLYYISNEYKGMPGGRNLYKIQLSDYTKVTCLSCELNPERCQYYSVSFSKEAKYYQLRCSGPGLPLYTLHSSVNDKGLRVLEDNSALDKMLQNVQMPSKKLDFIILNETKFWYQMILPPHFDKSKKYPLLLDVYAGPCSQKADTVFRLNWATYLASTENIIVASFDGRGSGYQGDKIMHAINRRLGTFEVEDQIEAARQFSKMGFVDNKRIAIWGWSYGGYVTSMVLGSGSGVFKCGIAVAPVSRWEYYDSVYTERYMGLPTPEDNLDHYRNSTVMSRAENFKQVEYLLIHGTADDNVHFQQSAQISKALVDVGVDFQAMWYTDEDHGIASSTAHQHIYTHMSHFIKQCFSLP
measured quantity: log10 Ki (log10 of the value in nM)

compound	log10 Ki
NC(C(=O)N1CCCC1)C1CCCC1 (configuration not stated)	2.32
Cc1nc2c(c(-c3ccc(Cl)cc3Cl)c1CN)CN(CCO)C2=O (single isomer, unassigned; atropisomer)	0.95
N[C@@H](CCC(=O)O)C(=O)N1CCCC1	3.30
COc1cc(O)c(Cl)cc1/C=C/C(=O)c1ccc(O)c([N+](=O)[O-])c1	2.98
CNC(C(=O)N1CCCC1)[C@H](C)O (some centres not stated)	2.95
O=c1c(O)c(-c2ccc(O)cc2)oc2cc(O)cc(O)c12	4.16

====

Reported Ki against UniProtKB P27487, gathered from multiple publications, appears below.

compound string	Ki
COc1ccccc1-c1cn2c(-c3ccc(C(F)(F)F)c(F)c3)c(CN)c(C)nc2n1	> 10 µM
CC(C)(C#N)NC(=O)[C@@H](N)C(C)(C)C	> 10 µM
COc1ccccc1-c1cn2c(-c3ccc(Cl)c(C(F)(F)F)c3)c(CN)c(C)nc2n1	> 10 µM
N#C[C@@H]1CC(F)(F)CN1C(=O)CNC(=O)c1cccc2ccccc12	> 100 µM
